The measured values listed here are drawn from paper PMC10367348.

# Subject of test: T1, matrix protein 2 [Influenza A virus (A/New York/392/2004(H3N2))] (Influenza A virus (A/New …, UniProt P0DOF5, strain))
# T1 construct: also called M2; M2 protein
# Procedure details: flow cytometry on cells
# Condition description: one partner purified
Ends that are not written are not given here.
Assay endpoint: binding result

scFv AU1 (scFv, V domains shown, also called AU1 scFv) VH: EVQLLESGGGLVQPGGSLRLSCAASGFTFSSYAMSWVRQAPGKGLEWVSTILQHGQRTLYADSVKGRFTISRDNSKNTLYLQMNSLRAEDTAVYYCAKNRAVFDYWGQGTLVTVSS VL: DIQMTQSPSSLSASVGDRVTITCRASQSISSYLNWYQQKPGKAPKLLIYTASTLQSGVPSRFSGSGSGTDFTLTISSLQPEDFATYYCQQYRQRPPTFGQGTKVEIK : binds
scFv JU1 (scFv, V domains shown) VH: EVQLLESGGGLVQPGGSLRLSCAASGFTFSSYAMSWVRQAPGKGLEWVSRISAQGNQTRYSDSVKGRFTISRDNSKNTLYLQMNSLRAEDTAVYYCAKKSSYFDYWGQGTLVTVSS VL: DIQMTQSPSSLSASVGDRVTITCRASQSISSYLNWYQQKPGKAPKLLIYKASTLQSGVPSRFSGSGSGTDFTLTISSLQPEDFATYYCQQWRTRPLTFGQGTKVEIK : binds
scFv GU1 (scFv, V domains shown) VH: EVQLLESGGGLVQPGGSLRLSCAASGFTFSSYAMSWVRQAPGKGLEWVSGISQLGGYTGYAGSVKGRFTISRDNSKNTLYLQMNSLRAEDTAVYYCAKNRATFDYWGQGTLVTVSS VL: DIQMTQSPSSLSASVGDRVTITCRASQSISSYLNWYQQKPGKAPKLLIYAASHLQSGVPSRFSGSGSGTDFTLTISSLQPEDFATYYCQQSQHKPLTFGQGTKVEIK : binds
